Would you mind telling me the reported IC50 of each entry?
Give the value in nM but do not write nM after it.

Request: Kindly state the measured IC50 obtained for Oc1cc(Cc2c(Cl)cccc2Cl)nc(SC2CCCC2)n1 with Human immunodeficiency virus type 1 reverse transcriptase (Human immunodeficiency virus 1).
Result: 400

Request: Notebook: pull reported IC50 for Human immunodeficiency virus type 1 reverse transcriptase (Human immunodeficiency virus 1), entry CCC(C)Sc1nc(O)cc(Cc2ccccc2Cl)n1 (stereo not given)
Result: 1600

Request: Hello, I am looking for reported IC50 with Human immunodeficiency virus type 1 reverse transcriptase (Human immunodeficiency virus 1) for CCC(C)Sc1nc(O)cc(Cc2c(F)cccc2F)n1 (stereo not given) . Could you help?
Result: 50

Request: Observed IC50 on Human immunodeficiency virus type 1 reverse transcriptase (Human immunodeficiency virus 1) for Cc1c(O)nc(SC2CCCC2)nc1Cc1c(Cl)cccc1Cl , please.
Result: 1700

Request: Write down the reported IC50 of CCOCn1c(Cc2ccccc2)c(C(C)C)c(=O)[nH]c1=O , test system: Human immunodeficiency virus type 1 reverse transcriptase (Human immunodeficiency virus 1).
Result: 40

Request: State its IC50 on Human immunodeficiency virus type 1 reverse transcriptase (Human immunodeficiency virus 1): CCC(C)Sc1nc(O)cc(Cc2cccc(Cl)c2)n1 (stereo not given)
Result: 1900

Request: For Human immunodeficiency virus type 1 reverse transcriptase (Human immunodeficiency virus 1), provide IC50 of CCC(C)Sc1nc(O)cc(Cc2ccc(Cl)cc2)n1 (stereo not given) please.
Result: 4800

Request: Request - read-out IC50 | tested on Human immunodeficiency virus type 1 reverse transcriptase (Human immunodeficiency virus 1) | compound CCC(C)Sc1nc(O)c(C)c(Cc2ccccc2)n1 (stereo not given)
Result: 500

Request: IC50 of CCC(C)Sc1nc(O)c(C)c(Cc2c(Cl)cccc2Cl)n1 (stereo not given) on Human immunodeficiency virus type 1 reverse transcriptase (Human immunodeficiency virus 1)?
Result: 60

Request: API: value(readout= IC50, system= Human immunodeficiency virus type 1 reverse transcriptase (Human immunodeficiency virus 1), query= Cc1c(Cc2c(F)cccc2F)nc(SC2CCCC2)[nH]c1=O )
Result: 80

====

Test system: MT4
Assay: Cytotoxicity against mock-infected MT-4 cells.
Assay type: functional
Conditions: Homo sapiens
Can you tell me CC50 for the items I'm about to list?

Request: Value lookup for CC50; key = Cc1c(O)nc(SC2CCCCC2)nc1Cc1c(Cl)cccc1Cl
Result: > 200 µM

Request: So what does the record say about CC50 for Oc1cc(Cc2c(Cl)cccc2Cl)nc(SC2CCCC2)n1 ?
Result: > 200 µM

Request: Entry under review: CCC(C)Sc1nc(O)cc(Cc2cccc(Cl)c2)n1 (stereo not given) . Reported CC50?
Result: 116 µM

Request: Which measured CC50 value corresponds to Oc1cc(Cc2c(Cl)cccc2Cl)nc(SC2CCCCC2)n1 ?
Result: > 200 µM

Request: For CCC(C)Sc1nc(O)cc(Cc2c(Cl)cccc2Cl)n1 (stereo not given) , what is its reported CC50?
Result: > 200 µM

Request: Query: CC50; subject: CCC(C)Sc1nc(O)c(C)c(Cc2ccccc2F)n1 (stereo not given)
Result: 140 µM

Request: Would you mind telling me what CC50 value was observed for CCC(C)Sc1nc(O)c(C)c(Cc2ccc([N+](=O)[O-])cc2)n1 (stereo not given) ?
Result: > 200 µM

Request: Give its CC50 value. Item: Cc1c(O)nc(SCC(C)C)nc1Cc1c(F)cccc1F
Result: 164 µM

Request: Quick check: CC50 of CCC(C)Sc1nc(O)cc(Cc2ccc(Cl)cc2)n1 (stereo not given) ?
Result: 120 µM

Request: Give its CC50 value. Item: Cc1c(O)nc(SC2CCCC2)nc1Cc1ccccc1
Result: > 200 µM

Request: # get_value(readout='CC50', item= CC(C)Sc1nc(O)cc(Cc2c(Cl)cccc2Cl)n1 )
Result: > 200 µM

Request: Quick one: CC50 for CCC(C)Sc1nc(O)c(C)c(Cc2cccc(F)c2)n1 (stereo not given) ?
Result: > 200 µM

Request: Consider the compound shown here: CSc1nc(O)c(C)c(Cc2c(Cl)cccc2Cl)n1 What is its recorded CC50?
Result: > 200 µM

Request: I have this compound here, CCCCSc1nc(O)cc(Cc2c(F)cccc2F)n1 , and I need its recorded CC50.
Result: 162 µM

Request: Given the entry Cc1c(O)nc(SC2CCCC2)nc1Cc1c(Cl)cccc1Cl , report its measured CC50.
Result: > 200 µM

Request: Consider the compound CC(C)CSc1nc(O)cc(Cc2c(F)cccc2F)n1 and give its measured CC50.
Result: 182 µM

Request: Would you kindly share the measured CC50 for CC(C)Sc1nc(Cc2c(F)cccc2F)cc(=O)[nH]1 ?
Result: > 200 µM

Request: Fill in the blank: the reported CC50 of O=c1cc(Cc2c(F)cccc2F)nc(SC2CCCC2)[nH]1 is ____.
Result: > 200 µM

Request: Reported CC50 for CCC(C)Sc1nc(O)cc(Cc2ccccc2Cl)n1 (stereo not given) : what is it?
Result: 200 µM

Request: // CC50 lookup, key: Cc1c(O)nc(SC2CCCCC2)nc1Cc1c(F)cccc1F
Result: > 200 µM

Request: Look up CC50: CCC(C)Sc1nc(O)c(C)c(Cc2c(Cl)cccc2Cl)n1 (stereo not given)
Result: > 200 µM

Request: CC50 lookup needed for CCC(C)Sc1nc(O)cc(Cc2ccc([N+](=O)[O-])cc2)n1 (stereo not given) , thanks.
Result: 151 µM

Request: Which value of CC50 has been reported for Cc1c(Cc2c(F)cccc2F)nc(SC(C)C)[nH]c1=O in the records?
Result: > 200 µM

Request: Can you look up the measured CC50 of CCC(C)Sc1nc(O)c(C)c(Cc2ccccc2Cl)n1 (stereo not given) for me?
Result: > 200 µM

Request: # input compound: CSc1nc(O)c(C)c(Cc2c(F)cccc2F)n1 ; wanted: its CC50
Result: 200 µM

====

Test system: MT4
Assay: Cytotoxicity against mock-infected MT-4 cells.
Type: functional
Conditions: Homo sapiens
Can you tell me CC50 for the items I'm about to list?

Request: Need CC50 of CCC(C)Sc1nc(O)c(C)c(Cc2cccc(Cl)c2)n1 (stereo unspecified) , thanks.
Result: > 200 µM

Request: If you can, please state the reported CC50 value of CCC(C)Sc1nc(O)c(C)c(Cc2c(F)cccc2F)n1 (stereo unspecified) .
Result: > 200 µM

Request: State the recorded CC50 for this entry: CCC(C)Sc1nc(O)c(C)c(Cc2ccc(F)cc2)n1 (stereo unspecified)
Result: 105 µM

Request: Entry Cc1c(O)nc(SC(C)C)nc1Cc1c(Cl)cccc1Cl has what CC50?
Result: > 200 µM

Request: # input compound: CCCCSc1nc(O)cc(Cc2c(Cl)cccc2Cl)n1 ; wanted: its CC50
Result: > 200 µM

Request: Which value of CC50 has been reported for CCC(C)Sc1nc(O)cc(Cc2cccc([N+](=O)[O-])c2)n1 (stereo unspecified) in the records?
Result: 157 µM

Request: Query: CC50; subject: CCC(C)Sc1nc(O)cc(Cc2ccccc2[N+](=O)[O-])n1 (stereo unspecified)
Result: > 200 µM

Request: Fill in: CC50 of Cc1ccnc2c1NC(=O)c1cccnc1N2C1CC1 is ___
Result: > 200 µM

Request: What value of CC50 has been recorded for this entry: CC(C)CSc1nc(O)cc(Cc2c(Cl)cccc2Cl)n1
Result: > 200 µM

Request: Need CC50 of CCC(C)Sc1nc(O)cc(Cc2ccccc2F)n1 (stereo unspecified) , thanks.
Result: 200 µM

Request: Using the record for CCC(C)Sc1nc(O)cc(Cc2c(F)cccc2F)n1 (stereo unspecified) , report its CC50.
Result: > 200 µM

====

Provide the reported log10 of IC50 of each item.
Biological target: Human immunodeficiency virus type 1 reverse transcriptase (Human immunodeficiency virus 1, UniProt Q72547)
Could you please treat all values as log10 of IC50 in nM?

Request: Would you kindly share the measured log10 of IC50 for CCCCSc1nc(O)c(C)c(Cc2c(F)cccc2F)n1 ?
Result: 1.95

Request: Entry Cc1c(O)nc(SC2CCCCC2)nc1Cc1c(F)cccc1F : reported log10 of IC50 = ?
Result: 1.85

Request: Name the reported log10 of IC50 value associated with the compound CCC(C)Sc1nc(O)cc(Cc2cccc(F)c2)n1 (configuration not stated)
Result: 2.78

Request: What value of log10 of IC50 has been recorded for this entry: CC(C)Sc1nc(O)cc(Cc2c(Cl)cccc2Cl)n1
Result: 3.18

Request: What does the record list as log10 of IC50 for CSc1nc(O)cc(Cc2c(F)cccc2F)n1 ?
Result: 2.90

Request: Looking for the measured log10 of IC50 of CSc1nc(O)cc(Cc2c(Cl)cccc2Cl)n1 , can you help?
Result: 3.48

Request: Report log10 of IC50 for Cc1c(O)nc(SC2CCCCC2)nc1Cc1c(Cl)cccc1Cl please.
Result: 3.69

The reported numbers originate from ChEMBL document CHEMBL1132584.
